Reference for the values: patent US10441589B2

- assay_details: Cell viability of primary human hepatocytes (CellTiter-Glo, intracellular ATP)
- Assay type: cell-based
- test_conditions: human, cryopreserved primary human hepatocytes, Table 6, alone; donor HuM4055A; read-out: Cmpd (I) CC50
readout_label: CC50 at 6 days (µM)
# unit: µM | format: bare number

stdin: Tell me the measured CC50 at 6 days of "O=C(Nc1cc(F)c(F)c(F)c1)c1ccc(F)c(S(=O)(=O)N2CCC(O)CC2)c1" , please.
stdout: 19

====

- assay_details: Cell viability of primary human hepatocytes (CellTiter-Glo, intracellular ATP)
- Format: cell-based
- test_conditions: human, cryopreserved primary human hepatocytes, range over three donors (HuM4038, HuM4055A, HuM4059); 6 days; read-out: CC50 values, range
readout_label: CC50 at 6 days

stdin: Tell me the measured CC50 at 6 days of "O=C(Nc1cc(F)c(F)c(F)c1)c1ccc(F)c(S(=O)(=O)N2CCC(O)CC2)c1" , please.
stdout: 16 to 82 µM

====

- System: primary human hepatocytes
- assay_details: Cell viability of primary human hepatocytes (CellTiter-Glo, intracellular ATP)
- Format: cell-based
- test_conditions: donor HuM4038, second HuM4038 column of Table 3; 6 days; read-out: HuM4038 CC50
- Procedure: Cryopreserved primary human hepatocytes from individual donors (primary hepatocyte IDs: HuM4038, HuM4055A, and HuM4059) were purchased from Triangle Research Labs (TRL; Research Triangle Park, N.C.). […] For each donor, three 96-well plates were set up to evaluate the effect of increasing concentrations of Compound 1 either alone or in combination with nucleoside analogs on hepatocyte cell viability. […] Background signal was determined as the mean value from wells containing only culture medium. […]
readout_label: CC50

stdin: Tell me the measured CC50 of "C[C@H](Cn1cnc2c(N)ncnc21)OCP(=O)(O)O" , please.
stdout: > 30 µM

====

- assay_details: Cell viability of primary human hepatocytes (CellTiter-Glo, intracellular ATP)
- Assay type: cell-based
- test_conditions: human, cryopreserved primary human hepatocytes, Table 6, alone; donor HuM4059; read-out: Cmpd (I) CC50
readout_label: CC50 at 6 days (µM)
# unit: µM | format: bare number

stdin: Tell me the measured CC50 at 6 days of "O=C(Nc1cc(F)c(F)c(F)c1)c1ccc(F)c(S(=O)(=O)N2CCC(O)CC2)c1" , please.
stdout: 83

====

- assay_details: Cell viability of primary human hepatocytes (CellTiter-Glo, intracellular ATP)
- Assay type: cell-based
- test_conditions: human, cryopreserved primary human hepatocytes, Table 5, alone; donor HuM4055A; read-out: Cmpd (I) CC50
readout_label: CC50 at 6 days
Answer shape: numeric part, then the unit.

stdin: Tell me the measured CC50 at 6 days of "O=C(Nc1cc(F)c(F)c(F)c1)c1ccc(F)c(S(=O)(=O)N2CCC(O)CC2)c1" , please.
stdout: 19 µM

====

- System: primary human hepatocytes
- assay_details: Cell viability of primary human hepatocytes (CellTiter-Glo, intracellular ATP)
- Assay type: cell-based
- test_conditions: donor HuM4059; 6 days; read-out: HuM4059 CC50
readout_label: CC50

stdin: Which CC50 is reported with primary human hepatocytes for this entry: "C[C@H](Cn1cnc2c(N)ncnc21)OCP(=O)(O)O" ?
stdout: > 30 µM

====

- Tested on: rtN236T HBV variant
- assay_details: Antiviral activity in HepG2 cells transiently transfected with rtN236T HBV variant
- Format: cell-based, HBV genotype B
- test_conditions: EC50 fold change relative to mean wild-type EC50; mean ± SD
Structures can show the parent of a compound that is named as a salt. Marks after values point to notes of the source that are not given here.
Overview of recorded Fold Change rtN236T for various compounds

O=C(Nc1cc(F)c(F)c(F)c1)c1ccc(F)c(S(=O)(=O)N2CCC(O)CC2)c1	0.85 ± 0.40^ns
CC(C)OC(=O)OCOP(=O)(CO[C@H](C)Cn1cnc2c(N)ncnc21)OCOC(=O)OC(C)C [TDF, tenofovir disoproxil fumarate]	2.2 ± 1.0^b
C=C1[C@H](CO)[C@@H](O)C[C@@H]1n1cnc2c(=O)[nH]c(N)nc21	0.67 ± 0.22^ns

Now for the compound whose Fold Change rtN236T we want.
stdin: Tell me the measured Fold Change rtN236T of "Nc1ccn([C@@H]2CS[C@H](CO)O2)c(=O)n1" , please.
stdout: 1.0 ± 0.5^ns
